assay: In vitro liver microsome assay, mouse; format: in vitro ADME; settings: pooled liver microsomes
Reported half-life at 1.5 μM values are given for each entry in this list.

Some entries whose results are on file:
| molecule | half-life at 1.5 μM |
| --- | --- |
| O=C(Nc1ccc2sc(-c3ccccc3)nc2c1)N1CCCC1 [Compound 38] | > 20 min |
| O=C(Nc1ccc2oc(-c3ccccc3)nc2c1)N1CCCCC1 [Compound 32] | 10 to 20 min |

Given O=C(Nc1ccc2sc(-c3ccccc3)nc2c1)N1CCCCC1 [Compound 40] , state its recorded half-life at 1.5 μM.
> 20 min

Further, for O=C(Nc1ccc2oc(-c3ccccc3)nc2c1)c1ccccc1 [Compound 30] ?
10 to 20 min

Just for reference, paper PMC5362113 is where these values come from.
